# target system: T1, human MSLN-R1-his protein (human, UniProt Q13421 296-390)
# T1 construct: also called human MSLN-R1 protein; hMSLN-R1-his; not shown: His tag
# T1 sequence (Q13421 other isoform, or with tags, fused parts or gaps): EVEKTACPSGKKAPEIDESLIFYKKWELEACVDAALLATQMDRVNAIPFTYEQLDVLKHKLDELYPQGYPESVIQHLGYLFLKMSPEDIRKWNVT
# experimental details: ELISA, coated antigen; antibody 0.1 nM
Catalogue of binders with associated OD450
I only need the number, in OD450, no unit after it.

S009-F6-76.1 (antibody, human IgG1, kappa, V domains shown, Human-murine chimeric antibody, human IgG1/kappa constant regions) VH: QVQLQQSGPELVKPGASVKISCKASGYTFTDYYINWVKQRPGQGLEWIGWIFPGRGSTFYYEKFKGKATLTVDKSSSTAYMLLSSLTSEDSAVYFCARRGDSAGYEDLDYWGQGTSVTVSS VL: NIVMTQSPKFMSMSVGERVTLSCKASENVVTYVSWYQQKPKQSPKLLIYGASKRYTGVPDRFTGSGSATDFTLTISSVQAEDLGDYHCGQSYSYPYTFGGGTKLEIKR | 0.04
S009-F5-9.16 (antibody, human IgG1, kappa, V domains shown, Human-murine chimeric antibody, human IgG1/kappa constant regions) VH: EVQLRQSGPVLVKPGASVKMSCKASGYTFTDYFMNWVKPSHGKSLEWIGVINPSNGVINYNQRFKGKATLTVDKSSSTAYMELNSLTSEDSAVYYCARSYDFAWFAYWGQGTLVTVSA VL: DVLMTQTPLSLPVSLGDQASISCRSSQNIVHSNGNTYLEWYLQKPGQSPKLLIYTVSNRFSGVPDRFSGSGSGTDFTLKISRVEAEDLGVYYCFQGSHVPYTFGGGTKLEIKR | 0.04

Task: Name the recorded OD450 for S009-F4-127.10 (antibody, human IgG1, kappa, V domains shown, Human-murine chimeric antibody, human IgG1/kappa constant regions) VH: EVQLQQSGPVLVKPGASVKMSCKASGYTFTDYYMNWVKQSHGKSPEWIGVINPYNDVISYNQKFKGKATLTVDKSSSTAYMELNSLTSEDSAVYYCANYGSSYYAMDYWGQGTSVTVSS VL: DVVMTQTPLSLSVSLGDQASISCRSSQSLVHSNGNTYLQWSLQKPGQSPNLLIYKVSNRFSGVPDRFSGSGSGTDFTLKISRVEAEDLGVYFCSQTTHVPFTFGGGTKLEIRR .
Result: 0.05

Task: Name the recorded OD450 for S009-F4-94.15 (antibody, human IgG1, kappa, V domains shown, Human-murine chimeric antibody, human IgG1/kappa constant regions) VH: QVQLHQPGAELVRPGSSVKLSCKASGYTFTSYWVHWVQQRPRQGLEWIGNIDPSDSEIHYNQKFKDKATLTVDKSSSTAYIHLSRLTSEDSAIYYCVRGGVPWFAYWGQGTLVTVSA VL: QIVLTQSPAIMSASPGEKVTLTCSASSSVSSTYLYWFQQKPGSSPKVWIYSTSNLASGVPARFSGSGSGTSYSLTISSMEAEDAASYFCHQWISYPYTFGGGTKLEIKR .
Result: 0.05

Value source: patent US20250250357A1
